test system: porcine rotavirus KJ205 (G5P[7]); experiment: Virucidal effect against porcine rotavirus KJ205 (sample pre-reacted with virus, neutral red readout in TF-104 cells); format: cell-based; conditions: rhesus monkey; Virucidal effect, KJ205 (G5P[7]); read-out: S.I. (selective index, CC50/EC50)
reported metric: selectivity ratio

- COc1c(CC=C(C)C)c(O)cc2c1CC(c1ccc(O)cc1O)CO2 (stereo not shown) [Compound 4, glyasperin C]: 2.1
